Where do the numbers come from? From patent US20240309103A1.

# Study system: T1, hNPR1-mFc:hBNP complex (human, UniProt P16860 103-134)
# T1 construct: also called human NPR1 complexed to BNP
# Procedure details: SPR, mAb captured, 37C
Property name: t½ (h)
I only need the number, in h, no unit after it.

- Binder: "mAb22035 (antibody, human IgG4, V domains shown) VH: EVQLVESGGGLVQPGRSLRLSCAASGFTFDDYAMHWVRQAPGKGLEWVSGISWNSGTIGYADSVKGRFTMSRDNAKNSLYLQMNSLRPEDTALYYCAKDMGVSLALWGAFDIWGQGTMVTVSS VL: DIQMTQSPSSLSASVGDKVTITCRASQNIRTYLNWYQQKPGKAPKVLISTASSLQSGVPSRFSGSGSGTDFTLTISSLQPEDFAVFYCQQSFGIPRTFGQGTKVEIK"
  Property name: "t½"
  Measured: 1.5
- Binder: "mAb25502 (antibody, human IgG4, V domains shown) VH: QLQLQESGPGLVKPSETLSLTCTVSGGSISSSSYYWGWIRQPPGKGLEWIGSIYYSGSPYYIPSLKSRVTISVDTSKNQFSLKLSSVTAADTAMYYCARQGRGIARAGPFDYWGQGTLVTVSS VL: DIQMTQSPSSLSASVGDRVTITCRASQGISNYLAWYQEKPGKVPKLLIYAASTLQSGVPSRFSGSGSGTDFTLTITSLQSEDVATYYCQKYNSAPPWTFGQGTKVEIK"
  Property name: "t½"
  Measured: 0.408
- Binder: "mAb22805 (antibody, human IgG4, V domains shown) VH: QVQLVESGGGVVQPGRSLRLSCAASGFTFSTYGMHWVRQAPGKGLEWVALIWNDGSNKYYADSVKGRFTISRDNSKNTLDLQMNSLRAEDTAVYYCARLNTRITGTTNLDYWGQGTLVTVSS VL: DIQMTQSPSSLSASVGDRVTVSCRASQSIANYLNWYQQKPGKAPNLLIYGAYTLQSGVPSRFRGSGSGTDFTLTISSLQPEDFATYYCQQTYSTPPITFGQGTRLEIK"
  Property name: "t½"
  Measured: 0.615
- Binder: "mAb25497 (antibody, human IgG4, V domains shown) VH: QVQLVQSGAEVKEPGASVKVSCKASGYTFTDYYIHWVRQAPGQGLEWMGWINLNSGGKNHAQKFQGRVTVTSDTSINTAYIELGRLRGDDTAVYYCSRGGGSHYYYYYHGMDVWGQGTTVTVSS VL: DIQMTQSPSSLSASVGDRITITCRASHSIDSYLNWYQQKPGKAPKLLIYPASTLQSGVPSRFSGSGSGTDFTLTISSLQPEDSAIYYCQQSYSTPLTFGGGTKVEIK"
  Property name: "t½"
  Measured: 1.66

Next binder, t½ to be filled in.
INPUT: Returns the measured t½ for the input binder. Input: mAb25491 (antibody, human IgG4, V domains shown) VH: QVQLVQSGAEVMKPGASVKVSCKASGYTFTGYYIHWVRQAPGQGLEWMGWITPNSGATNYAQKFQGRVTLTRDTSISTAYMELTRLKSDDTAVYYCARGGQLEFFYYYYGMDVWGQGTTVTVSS VL: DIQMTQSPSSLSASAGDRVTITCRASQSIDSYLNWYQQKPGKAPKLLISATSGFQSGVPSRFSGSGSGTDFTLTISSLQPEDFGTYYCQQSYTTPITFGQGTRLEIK
OUTPUT: 1.44
